target: BRM (Homo sapiens); assay: ATPase catalytic activity assay (ADP-Glo), BRM; conditions: 30 nM BRM, 400 μM ATP
Measured property: BRM Max % Inhibition (%)

{"columns": ["Smiles string", "U", "BRM Max % Inhibition"],
 "data": [
  ["Cn1ncc2c1CCN(c1ccc3cnc(CNC(=O)c4ccc5c(c4)[C@](C)(C#N)COC5)cc3n1)C2", "%", 91],
  ["COc1ncccc1-c1nc2cc(CNC(=O)c3ccc4c(c3)[C@](C)(C#N)COC4)ncc2s1", "%", 79],
  ["C[C@@]1(F)COCc2ccc(C(=O)NCc3cc4cc(-c5cccc(N6CCC6)n5)ccc4cn3)cc21", "%", 103],
  ["C[C@@]1(F)COCc2ccc(C(=O)NCc3cc4nc(-c5ccnn(C6CC6)c5=O)ccc4cn3)cc21", "%", 97],
  ["C[C@@]1(C#N)COCc2ccc(C(=O)NCc3cc4nc(-n5cccn5)ccc4cn3)cc21", "%", 96],
  ["C[C@@]1(C#N)COCc2ccc(C(=O)NCc3cc4nc(-c5ccccc5)sc4nn3)cc21", "%", 94],
  ["C[C@@]1(F)COCc2ncc(C(=O)NCc3cc4nc(-c5ccccc5)ccc4cn3)cc21", "%", 92],
  ["O=C(NCc1cc(C#Cc2ccccc2)ccn1)c1cccc(C2(C(F)F)COC2)c1", "%", 84]
]}

* * *

target: BRM (Homo sapiens, UniProt P51531); experiment: ATPase catalytic activity assay (ADP-Glo), BRM; settings: 30 nM BRM, 400 μM ATP
Sequence (P51531 whole entry): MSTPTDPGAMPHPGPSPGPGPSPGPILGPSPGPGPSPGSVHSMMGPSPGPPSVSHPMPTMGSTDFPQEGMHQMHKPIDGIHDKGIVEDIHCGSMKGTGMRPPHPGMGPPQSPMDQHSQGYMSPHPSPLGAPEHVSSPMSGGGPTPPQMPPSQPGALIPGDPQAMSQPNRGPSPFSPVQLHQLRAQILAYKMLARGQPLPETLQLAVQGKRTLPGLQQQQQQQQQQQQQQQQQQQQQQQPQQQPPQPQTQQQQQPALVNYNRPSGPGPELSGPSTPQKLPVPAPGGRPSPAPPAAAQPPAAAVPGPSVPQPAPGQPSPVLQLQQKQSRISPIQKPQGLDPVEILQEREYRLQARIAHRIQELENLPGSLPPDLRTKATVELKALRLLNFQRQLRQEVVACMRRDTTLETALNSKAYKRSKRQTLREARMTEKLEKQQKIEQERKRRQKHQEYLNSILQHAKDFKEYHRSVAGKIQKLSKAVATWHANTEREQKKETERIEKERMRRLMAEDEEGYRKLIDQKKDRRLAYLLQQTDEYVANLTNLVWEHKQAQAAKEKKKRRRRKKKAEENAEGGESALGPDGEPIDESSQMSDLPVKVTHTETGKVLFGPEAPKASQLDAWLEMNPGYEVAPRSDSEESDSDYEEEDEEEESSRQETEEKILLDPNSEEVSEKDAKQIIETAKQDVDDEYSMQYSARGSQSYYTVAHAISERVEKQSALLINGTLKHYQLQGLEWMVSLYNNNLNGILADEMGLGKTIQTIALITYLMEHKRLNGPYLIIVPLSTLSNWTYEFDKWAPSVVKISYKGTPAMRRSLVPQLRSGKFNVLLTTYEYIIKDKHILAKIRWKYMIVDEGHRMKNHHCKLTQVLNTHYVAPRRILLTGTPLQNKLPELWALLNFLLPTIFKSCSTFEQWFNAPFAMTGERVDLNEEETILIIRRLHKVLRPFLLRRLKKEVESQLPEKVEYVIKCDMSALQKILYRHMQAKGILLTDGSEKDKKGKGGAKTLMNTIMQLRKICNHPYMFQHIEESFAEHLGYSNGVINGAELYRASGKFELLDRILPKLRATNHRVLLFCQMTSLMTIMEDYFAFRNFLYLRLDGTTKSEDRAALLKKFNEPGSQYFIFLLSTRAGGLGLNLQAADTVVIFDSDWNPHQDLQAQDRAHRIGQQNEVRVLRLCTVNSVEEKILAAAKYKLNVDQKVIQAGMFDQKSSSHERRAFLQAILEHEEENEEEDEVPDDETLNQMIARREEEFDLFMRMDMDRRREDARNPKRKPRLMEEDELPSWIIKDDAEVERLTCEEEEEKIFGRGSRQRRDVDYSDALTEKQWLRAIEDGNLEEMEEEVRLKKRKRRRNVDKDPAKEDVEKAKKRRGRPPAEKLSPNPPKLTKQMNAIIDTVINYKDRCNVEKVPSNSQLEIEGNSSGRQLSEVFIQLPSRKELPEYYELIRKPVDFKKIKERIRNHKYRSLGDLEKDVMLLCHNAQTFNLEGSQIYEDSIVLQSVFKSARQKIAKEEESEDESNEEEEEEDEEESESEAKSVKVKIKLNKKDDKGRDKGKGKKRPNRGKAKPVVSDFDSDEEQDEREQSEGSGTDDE
Measured property: BRM Max % Inhibition (%)

{"columns": ["Compound", "U", "Recorded value"],
 "data": [
  ["C[C@@]1(C#N)COCc2ccc(C(=O)NCc3cc4nc(-c5ccnc(N6CC7CC6C7)n5)ccc4cn3)cc21 [Compound 285]", "%", 98],
  ["C[C@@]1(F)COCc2ccc(C(=O)NCc3cc4nc(-c5ccnc(N6CCC6)c5F)cnc4cn3)cc21 [Compound 207]", "%", 98],
  ["C[C@@]1(F)COCc2ccc(C(=O)NCc3cc4nc(-c5ccnc(N6CCOCC6)n5)ccc4cn3)cc21 [Compound 259]", "%", 99],
  ["COCC1CN(c2cncc(-c3ccc4cnc(CNC(=O)c5ccc6c(c5)[C@](C)(C#N)COC6)cc4n3)n2)C1 [Compound 394]", "%", 101],
  ["C[C@@]1(C#N)COCc2ccc(C(=O)NCc3cc4nc(-c5ccnc(N6CCC6)n5)ccc4cn3)cc21 [Compound 506]", "%", 97],
  ["COCCOCCC(=O)N1CCN(c2cccc(-c3ccc4cnc(CNC(=O)c5ccc6c(c5)[C@](C)(C#N)COC6)cc4n3)n2)CC1 [Compound 278]", "%", 101],
  ["C[C@@]1(F)COCc2ccc(C(=O)NCc3cc4nc(-c5ccnc(N6CCC6)n5)cnc4cn3)cc21 [Compound 190]", "%", 98],
  ["C[C@@]1(C#N)COCc2ccc(C(=O)NCc3cc4nc(-c5cccc(N6CCC6=O)c5)ccc4cn3)cc21 [Compound 393]", "%", 99],
  ["C[C@@]1(C#N)COCc2ccc(C(=O)NCc3cc4nc(-c5cncc(N6CCCC6)n5)ccc4cn3)cc21 [Compound 415]", "%", 99],
  ["Cn1cc2c(n1)CN(c1ccc3cnc(CNC(=O)c4ccc5c(c4)[C@](C)(C#N)COC5)cc3n1)CC2 [Compound 458]", "%", 95],
  ["O=C(NCc1cc(C#Cc2ccccc2)ccn1)c1ccc2c(c1)[C@](F)(C(F)F)COC2 [Compound 48]", "%", 67],
  ["O=C(NCc1cc2nc(-c3ccccc3)ccc2cn1)c1cccc(C2(C(F)F)COC2)c1 [Compound 100]", "%", 83],
  ["C[C@@]1(C#N)COCc2ccc(C(=O)NCc3cc4nc(-c5cn(C6COC6)nc5C5CC5)ccc4cn3)cc21 [Compound 186]", "%", 97],
  ["COC1CCN(c2nccc(-c3ccc4cnc(CNC(=O)c5ccc6c(c5)[C@](C)(C#N)COC6)cc4n3)n2)C1 (some centres unmarked) [Compound 422]", "%", 99],
  ["C[C@@]1(C#N)COCc2ccc(C(=O)NCc3cc4cc(N5CCn6ncc(C(F)F)c6C5)ccc4nn3)cc21 [Compound 219]", "%", 94],
  ["C[C@@]1(C#N)COCc2ncc(C(=O)NCc3cc4cc(-c5cncc(C6CC6)n5)ccc4cn3)cc21 [Compound 181]", "%", 100],
  ["COc1ccccc1-c1ccc2cnc(CNC(=O)c3ccc4c(c3)[C@](C)(C#N)COC4)cc2n1 [Compound 111]", "%", 101],
  ["COc1ncccc1-c1ccc2cnc(CNC(=O)c3ccc4c(c3)[C@](C)(C#N)COC4)cc2n1 [Compound 488]", "%", 101],
  ["C[C@@]1(C#N)COCc2ccc(C(=O)NCc3cc4cc(-c5cccc(N6CCC6)n5)ccc4cn3)cc21 [Compound 369]", "%", 104],
  ["C[C@@]1(C#N)COCc2ccc(C(=O)NCc3cc4nc(-c5cccnc5)sc4cn3)cc21 [Compound 439]", "%", 88],
  ["Cn1ccc2c(F)cc(-c3ccc4cnc(CNC(=O)c5ccc6c(c5)[C@](C)(C#N)COC6)cc4n3)cc2c1=O [Compound 434]", "%", 100],
  ["C[C@H]1CN(c2nccc(-c3ccc4cnc(CNC(=O)c5ccc6c(c5)[C@](C)(C#N)COC6)cc4n3)n2)CCO1 [Compound 322]", "%", 106],
  ["Cc1nn(C2COC2)cc1-c1ccc2cnc(CNC(=O)c3ccc4c(c3)[C@](C)(C#N)COC4)cc2n1 [Compound 188]", "%", 93],
  ["C[C@@]1(F)COCc2ccc(C(=O)NCc3cc4nc(-c5ccnc(N6CC[C@H]7COC[C@@H]7C6)n5)ccc4cn3)cc21 [Compound 307]", "%", 98],
  ["C[C@@]1(C#N)COCc2ccc(C(=O)NCc3cc(OCc4cccc(N5CCC5)n4)ccn3)cc21 [Compound 34]", "%", 94],
  ["COc1ccc([C@H]2C[C@H](c3ccnc(CNC(=O)c4ccc5c(c4)[C@](C)(C#N)COC5)c3)C2)cc1 [Compound 72]", "%", 94],
  ["COc1cc(C)ccc1-c1ccc2cnc(CNC(=O)c3ccc4c(c3)[C@](C)(C#N)COC4)cc2n1 [Compound 144]", "%", 102],
  ["C[C@@]1(C#N)COCc2ccc(C(=O)NCc3cc4c(cn3)CCN(c3cccc(C(F)F)n3)C4)cc21 [Compound 304]", "%", 86],
  ["C[C@@]1(C#N)COCc2ccc(C(=O)NCc3cc4cc(-c5ccccc5)ncc4cn3)cc21 [Compound 508]", "%", 90]
]}
